- PROTOCOL NOTES: Half life in Sprague-Dawley rat at 3 mg/kg,iv measured upto 24 hrs by LC-MS analysis
- Type: ADME, organism-based
- CONDITION SUMMARY: in vivo
MEASUREMENT LABEL: half-life (h)
Give bare numbers, in h.

Would you kindly share the measured half-life for "COc1cccc2c3c(oc12)CN(CCCCOc1ccc2ccc(=O)[nH]c2c1)CC3" ?
3.48

* * *

- MEASURED ON: D(1A) dopamine receptor (Homo sapiens)
- Sequence (P21728 whole entry): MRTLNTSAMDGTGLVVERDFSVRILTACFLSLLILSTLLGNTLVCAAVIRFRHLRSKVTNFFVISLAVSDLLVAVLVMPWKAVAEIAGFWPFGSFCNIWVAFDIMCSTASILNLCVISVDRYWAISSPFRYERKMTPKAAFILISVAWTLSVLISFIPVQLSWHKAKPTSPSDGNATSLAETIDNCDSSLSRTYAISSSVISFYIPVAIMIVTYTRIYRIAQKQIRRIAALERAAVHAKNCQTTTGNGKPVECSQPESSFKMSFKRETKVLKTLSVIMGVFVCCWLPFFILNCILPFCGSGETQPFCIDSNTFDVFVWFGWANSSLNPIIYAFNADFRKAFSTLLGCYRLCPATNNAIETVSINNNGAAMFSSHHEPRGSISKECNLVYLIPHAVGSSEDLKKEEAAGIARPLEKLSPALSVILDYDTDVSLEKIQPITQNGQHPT
- PROTOCOL NOTES: Displacement of [3H]-SCH23390 from Dopamine D1 receptor (unknown origin) expressed in HEK293T cell membrane incubated for 2 hrs by radioligand competitive binding based MicroBeta TriLux reader method
- Assay type: cell membranes
- CONDITION SUMMARY: read-out: Ki
What Ki was measured for each of the following?
Give bare numbers, in nM.

{"INPUT SMILES": "COc1cccc2c3c(oc12)CN(CCCCOc1ccc2ccc(=O)[nH]c2c1)CC3", "MEASURED ON": "D(1A) dopamine receptor (Homo sapiens)", "Ki, nM": 189}

Would you kindly share the measured Ki for "COc1cccc2c3c(oc12)CN(CCCCOc1ccc2c(c1)NC(=O)CC2)CC3" ?
35.5

* * *

- MEASURED ON: D(2) dopamine receptor (Homo sapiens)
- PROTOCOL NOTES: Partial agonist activity at Dopamine D2 receptor (unknown origin) expressed in HEK293T coexpressing beta-arrestin-2 assessed as increase in cAMP accumulation incubated for 5 mins by beta-arrestin recruitment based BRET assay
- Type: functional, cell-based
- CONDITION SUMMARY: read-out: EC50
pEC50: −log10 of the molar value.
Kind request: treat 8 as inclusive, so pEC50 at 8 or higher is Y, anything lower is N.

Recorded results for 6 compounds are shown here.
{"INPUT SMILES": "CCOc1cccc2cc(CNCCCCOc3ccc4ccc(=O)[nH]c4c3)oc12", "MEASURED ON": "D(2) dopamine receptor (Homo sapiens)", "CLASS LABEL": "Y"}
{"INPUT SMILES": "COc1cccc2cc(CNCCCOc3ccc4ccc(=O)[nH]c4c3)sc12", "MEASURED ON": "D(2) dopamine receptor (Homo sapiens)", "CLASS LABEL": "N"}
{"INPUT SMILES": "COc1cccc2cc(CNCCCCOc3ccc4c(c3)NC(=O)CC4)oc12", "MEASURED ON": "D(2) dopamine receptor (Homo sapiens)", "CLASS LABEL": "Y"}
{"INPUT SMILES": "CCOc1cccc2cc(CNCCCCCOc3ccc4c(c3)NC(=O)CC4)oc12", "MEASURED ON": "D(2) dopamine receptor (Homo sapiens)", "CLASS LABEL": "N"}
{"INPUT SMILES": "CCOc1cccc2cc(CNCCCCOc3ccc4oc(C)nc4c3)oc12", "MEASURED ON": "D(2) dopamine receptor (Homo sapiens)", "CLASS LABEL": "N"}
{"INPUT SMILES": "COc1cccc2c3c(oc12)CN(C/C=C/COc1ccc2ccc(=O)[nH]c2c1)CC3", "MEASURED ON": "D(2) dopamine receptor (Homo sapiens)", "CLASS LABEL": "N"}

We next turn to a different compound, shown below.
I'd appreciate it if you could say whether "COc1cccc2c3c(oc12)CN(CCCCOc1ccc2c(c1)NC(=O)C2)CC3" has pEC50 at least equal to 8.
N

* * *

- MEASURED ON: D(2) dopamine receptor (Homo sapiens)
- PROTOCOL NOTES: Partial agonist activity at Dopamine D2 receptor (unknown origin) expressed in HEK293T co-expressing G-alphai assessed as increase in cAMP accumulation incubated for 5 mins by BRET assay
- Assay type: functional, cell-based
- CONDITION SUMMARY: read-out: EC50
Returns: string. Value is 1 (yes) if measured EC50 is below 30 nM, and 0 (no) if it is greater than or equal to it.

Recorded results for 4 molecules are shown here.
{"INPUT SMILES": "O=c1ccc2ccc(OCCCCNCc3cc4ccccc4o3)cc2[nH]1", "CLASS LABEL": "1 (yes)"}
{"INPUT SMILES": "CCOc1cccc2cc(CNCC[C@H]3CC[C@H](NC(=O)N(C)C)CC3)oc12", "CLASS LABEL": "1 (yes)"}
{"INPUT SMILES": "CCOc1cccc2cc(CNCCCCOc3ccc4oc(C)nc4c3)oc12", "CLASS LABEL": "0 (no)"}
{"INPUT SMILES": "CCOc1cccc2cc(CNCCCCCOc3ccc4c(c3)NC(=O)CC4)oc12", "CLASS LABEL": "0 (no)"}

We next turn to a different molecule, shown below.
Does this molecule meet the criterion EC50 < 30 nM? "COc1cccc2c3c(oc12)CN(CCCCOc1ccc2c(c1)NC(=O)C2)CC3"
0 (no)

* * *

- PROTOCOL NOTES: C0 in Sprague-Dawley rat at 3 mg/kg,iv measured upto 24 hrs by LC-MS analysis
- Format: ADME, organism-based
- CONDITION SUMMARY: in vivo
MEASUREMENT LABEL: C0 at 24 h (ng/mL)
Answers are plain numbers, in ng/mL.

Would you kindly share the measured C0 at 24 h for "COc1cccc2c3c(oc12)CN(CCCCOc1ccc2ccc(=O)[nH]c2c1)CC3" ?
1330

* * *

- PROTOCOL NOTES: Cmax in Sprague-Dawley rat at 10 mg/kg,po measured upto 24 hrs by LC-MS analysis
- Format: ADME, organism-based
- Design: time < 24 hrs, dose 10 mg/kg, route po
- CONDITION SUMMARY: in vivo
MEASUREMENT LABEL: Cmax

Would you kindly share the measured Cmax for "COc1cccc2c3c(oc12)CN(CCCCOc1ccc2ccc(=O)[nH]c2c1)CC3" ?
1560 ng/mL

* * *

- PROTOCOL NOTES: AUC (0-infinity) in Sprague-Dawley rat at 3 mg/kg,iv measured upto 24 hrs by LC-MS analysis
- Format: ADME, organism-based
- Set-up: dose 3 mg/kg, time < 24 hrs, route iv
- CONDITION SUMMARY: in vivo
MEASUREMENT LABEL: AUC(0-inf) (µg·h/mL)
Answers are plain numbers, in µg·h/mL.

Would you kindly share the measured AUC(0-inf) for "COc1cccc2c3c(oc12)CN(CCCCOc1ccc2ccc(=O)[nH]c2c1)CC3" ?
3.01

* * *

- PROTOCOL NOTES: Clearance in Sprague-Dawley rat at 3 mg/kg,iv measured upto 24 hrs by LC-MS analysis
- Format: ADME, organism-based
- CONDITION SUMMARY: in vivo
MEASUREMENT LABEL: clearance (mL/min/kg)
One number for each entry, in mL/min/kg.

Would you kindly share the measured clearance for "COc1cccc2c3c(oc12)CN(CCCCOc1ccc2ccc(=O)[nH]c2c1)CC3" ?
16.7

* * *

- MEASURED ON: D(2) dopamine receptor (Homo sapiens, UniProt P14416)
- Sequence (P14416 whole entry): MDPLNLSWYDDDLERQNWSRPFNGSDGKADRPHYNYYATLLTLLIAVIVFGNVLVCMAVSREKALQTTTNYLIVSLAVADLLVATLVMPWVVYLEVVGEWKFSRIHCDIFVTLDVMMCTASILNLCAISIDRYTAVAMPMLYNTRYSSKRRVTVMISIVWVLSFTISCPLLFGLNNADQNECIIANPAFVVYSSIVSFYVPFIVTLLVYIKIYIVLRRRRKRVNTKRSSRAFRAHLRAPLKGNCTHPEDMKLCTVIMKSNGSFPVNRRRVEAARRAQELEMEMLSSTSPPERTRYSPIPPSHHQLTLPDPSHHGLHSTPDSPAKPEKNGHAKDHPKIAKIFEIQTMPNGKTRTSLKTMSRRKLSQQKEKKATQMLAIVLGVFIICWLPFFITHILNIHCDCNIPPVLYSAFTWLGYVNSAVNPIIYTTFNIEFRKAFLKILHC
- PROTOCOL NOTES: Partial agonist activity at Dopamine D2 receptor (unknown origin) expressed in HEK293T co-expressing G-alphai assessed as increase in cAMP accumulation incubated for 5 mins by BRET assay
- Type: functional, cell-based
- CONDITION SUMMARY: read-out: EC50
What pEC50 was measured for each of the following?
Numbers only, as −log10 of the molar value.

{"INPUT SMILES": "CCOc1cccc2cc(CNCCCCOc3ccc4ccc(=O)[nH]c4c3)oc12", "MEASUREMENT LABEL": "pEC50", "ENDPOINT RESULT": 9.89}
{"INPUT SMILES": "COc1cccc2c3c(oc12)CN(CCCCOc1ccc2ccc(=O)[nH]c2c1)CC3", "MEASUREMENT LABEL": "pEC50", "ENDPOINT RESULT": 7.73}
{"INPUT SMILES": "O=C1CCc2ccc(OCCCCNCc3cc4ccccc4o3)cc2N1", "MEASUREMENT LABEL": "pEC50", "ENDPOINT RESULT": 7.27}
{"INPUT SMILES": "CCOc1cccc2cc(CNCCCOc3ccc4c(c3)NC(=O)CC4)oc12", "MEASUREMENT LABEL": "pEC50", "ENDPOINT RESULT": 7.52}
{"INPUT SMILES": "CCOc1cccc2cc(CNCC[C@H]3CC[C@H](NC(=O)C4CC4)CC3)oc12", "MEASUREMENT LABEL": "pEC50", "ENDPOINT RESULT": 8.17}

For each of the items listed, what is its pEC50?
1. COc1cccc2cc(CNCCCOc3ccc4ccc(=O)[nH]c4c3)sc12
2. COc1cccc2cc(CNCCCCOc3ccc4c(c3)NC(=O)CC4)oc12

1: 6.57; 2: 8.29

* * *

- MEASURED ON: D(2) dopamine receptor (Homo sapiens, UniProt P14416)
- PROTOCOL NOTES: Partial agonist activity at Dopamine D2 receptor (unknown origin) expressed in HEK293T coexpressing beta-arrestin-2 assessed as increase in cAMP accumulation incubated for 5 mins by beta-arrestin recruitment based BRET assay
- Format: functional, cell-based
- CONDITION SUMMARY: read-out: EC50
What pEC50 was measured for each of the following?
One number for each entry, as −log10 of the molar value.

Worked examples, 2 molecules total:
{"INPUT SMILES": "COc1cccc2c3c(oc12)CN(CCCOc1ccc2ccc(=O)[nH]c2c1)CC3", "MEASURED ON": "D(2) dopamine receptor (Homo sapiens, UniProt P14416)", "pEC50": 7.58}
{"INPUT SMILES": "COc1cccc2c3c(oc12)CN(CCCCOc1ccc2cccnc2c1)CC3", "MEASURED ON": "D(2) dopamine receptor (Homo sapiens, UniProt P14416)", "pEC50": 6.29}

For each of the items listed, what is its pEC50?
1. O=c1ccc2ccc(OCCCCNCc3cc4ccccc4o3)cc2[nH]1
2. CCOc1cccc2cc(CNCC[C@H]3CC[C@H](NC(=O)N(C)C)CC3)oc12
3. CCOc1cccc2cc(CNCC[C@H]3CC[C@H](NC(=O)C4CC4)CC3)oc12

1. 8.60
2. 8.42
3. 8.39

Reference for the values: ChEMBL document CHEMBL5380874
